Test: chemical genetic growth profiling, strain panel (AID 1159580);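 further: tested at 20 µM; growth read once vehicle control cultures reached saturation at 30 °C; 1 = growth at the plate median or of vehicle wells; lower values mean less growth of the strain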
Settings: S. cerevisiae deletion strains, growth OD, locus YHR142W, strain chs7, hits give low values
The whole screen tested about 5,500 compounds, of which about 2,000 (36%) were called active. Another 18% or so got no clear call; they are omitted. This is one part of the list.
VALUE_TYPE: normalized growth
Keep the answer to the number alone.

CCCCCCCCCCC[C@@H](C[C@H]1OC(=O)[C@H]1CCCCCC)OC(=O)[C@@H](CC(C)C)NC=O : 1.04

[Q] Quote normalized growth reported for CCCCC/C=C/CCC(=O)N[C@H]1[C@H](Oc2c3cc4cc2Oc2ccc(cc2Cl)[C@@H](O[C@@H]2O[C@H](CO)[C@@H](O)[C@H](O)[C@H]2NC(C)=O)[C@@H]2NC(=O)[C@H](NC(=O)[C@@H]4NC(=O)[C@H]4NC(=O)C(Cc5ccc(c(Cl)c5)O3)NC(=O)[C@H](N)c3ccc(O)c(c3)Oc3cc(O)cc4c3)c3ccc(O)c(c3)-c3c(OC4O[C@H](CO)[C@@H](O)[C@H](O)[C@@H]4O)cc(O)cc3[C@@H](C(=O)O)NC2=O)O[C@H](CO)[C@@H](O)[C@@H]1O (stereo partly drawn) please.
[A] 1.03

[Q] Quote normalized growth reported for `CN1CC(=O)N=C1N` please.
[A] 0.996
